The origin of these recorded values is PubChem BioAssay (NCI).

Tested on: UACC-62 melanoma
Experiment: NCI tumour cell line growth inhibition, 48 h
readout type: TGI (µM)
State the answer as a number, implicitly in µM.

Sample records with TGI:
{"molecule": "CC(C)c1ccc(O)c(O)c(=O)c1 (tested in a mixture with another compound)", "readout type": "TGI", "assay value": 12.1}
{"molecule": "CC(C(O)c1ccccc1)[N+](=O)[O-] (stereo not drawn)", "readout type": "TGI", "assay value": 37.2}

query: Entry under review: O=C(Nn1c2c(sc1=NC1CC1)C(=O)c1ccccc1C2=O)c1cc2ccc1CCc1ccc(cc1)CC2 . Reported TGI?
result: 3.52

query: Next molecule: COc1cc(C2c3cc4c(cc3[C@@H](Nc3ccc(N5CCOCC5)cc3)C3COC(=O)[C@H]23)OCO4)cc(OC)c1O (stereo partly drawn)
result: 3.91

query: Cool, now CCCCCCCCC[C@@H]1C[C@@H]2CCC3C(C(=O)OCCCCNC(=O)OCc4ccccc4)=C(C)NC(=N1)N32 (stereo partly drawn)
result: 13.7

query: Same read-out for COc1ccc(Cn2cc3c(c2-c2ccccc2)CCc2cncnc2-3)cc1 ?
result: 16.5
